study-system: PI3K (Homo sapiens, UniProt P42336)
Construct: PI3 Kinase α IC50; other: PI3 Kinase α; other: PI3 Kinase α isoform, fluorescence polarization
Sequence (P42336 whole entry, canonical isoform): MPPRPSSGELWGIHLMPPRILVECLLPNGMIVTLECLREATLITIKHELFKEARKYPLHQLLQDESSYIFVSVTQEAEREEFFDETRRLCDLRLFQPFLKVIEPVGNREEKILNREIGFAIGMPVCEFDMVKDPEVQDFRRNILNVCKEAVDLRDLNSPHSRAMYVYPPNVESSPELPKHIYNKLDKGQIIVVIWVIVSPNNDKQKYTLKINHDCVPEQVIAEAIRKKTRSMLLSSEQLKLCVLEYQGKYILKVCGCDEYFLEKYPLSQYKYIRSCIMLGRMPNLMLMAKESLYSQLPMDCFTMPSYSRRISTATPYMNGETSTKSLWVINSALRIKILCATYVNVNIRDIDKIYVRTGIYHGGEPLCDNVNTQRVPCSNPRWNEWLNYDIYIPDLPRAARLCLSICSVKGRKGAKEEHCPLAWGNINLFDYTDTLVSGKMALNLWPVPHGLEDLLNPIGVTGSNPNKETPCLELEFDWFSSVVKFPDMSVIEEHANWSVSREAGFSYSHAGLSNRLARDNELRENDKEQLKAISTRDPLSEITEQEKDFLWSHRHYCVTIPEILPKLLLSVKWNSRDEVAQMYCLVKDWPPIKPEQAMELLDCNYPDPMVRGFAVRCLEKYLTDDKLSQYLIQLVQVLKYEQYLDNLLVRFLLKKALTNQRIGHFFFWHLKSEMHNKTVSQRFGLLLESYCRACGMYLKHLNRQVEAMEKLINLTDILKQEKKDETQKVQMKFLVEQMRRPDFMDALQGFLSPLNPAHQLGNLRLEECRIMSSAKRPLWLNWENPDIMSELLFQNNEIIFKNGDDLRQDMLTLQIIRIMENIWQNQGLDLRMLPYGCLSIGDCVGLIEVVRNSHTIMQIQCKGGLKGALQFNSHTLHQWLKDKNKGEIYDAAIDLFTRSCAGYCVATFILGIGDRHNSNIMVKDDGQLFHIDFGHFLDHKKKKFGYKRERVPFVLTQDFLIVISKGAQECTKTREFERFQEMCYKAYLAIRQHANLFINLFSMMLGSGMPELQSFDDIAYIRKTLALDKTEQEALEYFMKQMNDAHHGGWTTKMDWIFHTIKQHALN
procedure-details: Fluorescence polarization assay for PI3K
Assay type: biochemical
run-parameters: PI3 Kinase α; read-out: PI3 Kinase α IC50
So basically, if IC50 comes in under 1000 nM it's met, and if it's 1000 nM or more it's not met.

Answered examples (10):
molecule | label
CCNC(=O)Nc1ccc(-c2nc(N3CC4CCC(C3)O4)c3cnn(CCO)c3n2)cc1 [Example 194] | not met
CN(C)CCCNC(=O)Nc1ccc(-c2nc(N3CC4CCC(C3)O4)c3cnn(C)c3n2)cc1 [Example 59] | not met
CC(C)n1ncc2c(N3CC4CCC(C3)O4)nc(-c3ccc(NC(=O)NC4CC4)cc3)nc21 [Example 142] | met
CNC(=O)Nc1ccc(-c2nc(N3CC4CCC(C3)O4)c3cnn(C4CCC(O)CC4)c3n2)cc1 (centres unmarked) [Example 64] | not met
O=C(Nc1ccccc1)Nc1ccc(-c2nc(N3CC4CCC(C3)O4)c3cnn(C4CCC5(CC4)OCCO5)c3n2)cc1 [Example 127] | met
O=C(Nc1ccc(-c2nc(N3CC4CCC(C3)O4)c3cnn(CCO)c3n2)cc1)Nc1ccc(N2CCOCC2)nc1 [Example 206] | met
O=C(Nc1ccc(CCO)cc1)Nc1ccc(-c2nc(N3CC4CCC(C3)O4)c3cnn(CCO)c3n2)cc1 [Example 202] | met
O=C(Nc1ccc(CCO)cc1)Nc1ccc(-c2nc(N3CC4CCC(C3)O4)c3cnn(CC(F)(F)F)c3n2)cc1 [Example 260] | met
CN(C)CCn1ncc2c(N3CC4CCC(C3)O4)nc(-c3ccc(NC(=O)Nc4ccc(CCO)cc4)cc3)nc21 [Example 155] | met
O=C(Nc1ccncc1)Nc1ccc(-c2nc(N3CC4CCC(C3)O4)c3cnn(C4CCN(Cc5cccnc5)CC4)c3n2)cc1 [Example 19] | met

Query :: Please state whether IC50 is below 1000 nM for CC(C)OC(=O)N1CCC(n2ncc3c(N4CC5CCC(C4)O5)nc(-c4ccc(NC(=O)Nc5ccccc5)cc4)nc32)CC1 [Example 71]
Result :: met

====

Assignment: determine reported pIC50 for the given molecules.
study-system: Human mTOR (FLAG-TOR) (Homo sapiens)
Construct: FLAG
procedure-details: Human mTOR kinase assay with purified enzyme, DELFIA format
Type: biochemical
Give bare numbers, as −log10 of the molar value.

Sample answers from the record:
molecule | study-system | pIC50
O=C(Nc1ccc(-c2nc(N3C4CCC3COC4)c3cnn(CC(F)(F)F)c3n2)cc1)OCCO [Example 266] | Human mTOR (FLAG-TOR) (Homo sapiens) | 9.21
CN1CCN(c2ccc(NC(=O)Nc3ccc(-c4nc(N5CC6CCC(C5)O6)c5cnn(CCO)c5n4)cc3)cc2)CC1 [Example 203] | Human mTOR (FLAG-TOR) (Homo sapiens) | 8.97
COC(=O)N1CCC(n2ncc3c(N4CC5CCC(C4)O5)nc(-c4ccc(NC(=O)Nc5cccnc5)cc4)nc32)CC1 [Example 13] | Human mTOR (FLAG-TOR) (Homo sapiens) | 10.00
O=C(Nc1ccc(-c2nc(N3CC4CCC(C3)O4)c3cnn(CC(F)(F)F)c3n2)cc1)Nc1ccc(N2CCOCC2)nc1 [Example 252] | Human mTOR (FLAG-TOR) (Homo sapiens) | 9.33
CCn1ncc2c(N3CC4CCC(C3)O4)nc(-c3ccc(NC(=O)NCCO)cc3)nc21 [Example 44] | Human mTOR (FLAG-TOR) (Homo sapiens) | 9.47
CNC(=O)Nc1ccc(-c2nc(N3CC4CCC(C3)O4)c3cnn(C)c3n2)cc1 [Example 50] | Human mTOR (FLAG-TOR) (Homo sapiens) | 8.70
Oc1cccc(-c2nc(N3CC4CCC(C3)O4)c3cnn(-c4ccccc4)c3n2)c1 [Example 102] | Human mTOR (FLAG-TOR) (Homo sapiens) | 7.80
CNC(=O)Nc1ccc(-c2nc(N3CC4CCC(C3)O4)c3cnn(C4CCC5(CC4)OCCO5)c3n2)cc1 [Example 105] | Human mTOR (FLAG-TOR) (Homo sapiens) | 9.68
O=C(Nc1ccc(-c2nc(N3C[C@@H]4C[C@H]3CO4)c3cnn(CC(F)(F)F)c3n2)cc1)Nc1cccnc1 [Example 293] | Human mTOR (FLAG-TOR) (Homo sapiens) | 8.90
CCn1ncc2c(N3CC4CCC(C3)O4)nc(-c3ccc(NC(=O)Nc4ccc(C(=O)NN(C)C)cc4)cc3)nc21 [Example 289] | Human mTOR (FLAG-TOR) (Homo sapiens) | 9.48

For every listed record, write down its pIC50.
1. CC(C)n1ncc2c(N3CC4CCC(C3)O4)nc(-c3ccc(NC(=O)OCC(O)CO)cc3)nc21 (stereo not drawn) [Example 146]
2. COC(=O)Nc1ccc(-c2nc(N3CC4CCC(C3)O4)c3cnn(C4CCC(=O)CC4)c3n2)cc1 [Example 136]
3. CCNC(=O)Nc1ccc(-c2nc(N3CC4CCC(C3)O4)c3cnn(CCN(C)C)c3n2)cc1 [Example 160]
4. CCNC(=O)Nc1ccc(-c2nc(N3CC4CCC(C3)O4)c3cnn(C4CCN(C(=O)OC)CC4)c3n2)cc1 [Example 9]

Result ::
1: 8.54; 2: 8.20; 3: 7.89; 4: 9.66

Query :: Query pIC50 for CCNC(=O)Nc1ccc(-c2nc(N3CC4CCC(C3)O4)c3cnn(C)c3n2)cc1 [Example 51]
Result :: 8.80

====

study-system: Human mTOR (FLAG-TOR) (Homo sapiens, UniProt P42345)
Construct: FLAG
procedure-details: Human mTOR kinase assay with purified enzyme, DELFIA format
Type: biochemical
readout-name: pIC50
Answers are plain numbers, as −log10 of the molar value.

Sample answers from the record:
compound | pIC50
CNC(=O)Nc1ccc(-c2nc(N3CC4CCC(C3)O4)c3cnn(C(C)C)c3n2)cc1 [Example 139] | 9.94
CC(C)n1ncc2c(N3CC4CCC(C3)O4)nc(-c3ccc(NC(=O)Nc4ccncc4)cc3)nc21 [Example 149] | 9.90
CNC(=O)Nc1ccc(-c2nc(N3CC4CCC(C3)O4)c3cnn(CC(F)(F)F)c3n2)cc1 [Example 1] | 9.20
CN(C)CCn1ncc2c(N3CC4CCC(C3)O4)nc(-c3ccc(NC(=O)Nc4ccccc4)cc3)nc21 [Example 156] | 8.58
CCn1ncc2c(N3CC4CCC(C3)O4)nc(-c3cccc(O)c3)nc21 [Example 75] | 7.57

For every listed record, write down its pIC50.
1. CN(C)CCCNC(=O)Nc1ccc(-c2nc(N3CC4CCC(C3)O4)c3cnn(C)c3n2)cc1 [Example 59]
2. CCNC(=O)Nc1ccc(-c2nc(N3CC4CCC(C3)O4)c3cnn(C4CCNCC4)c3n2)cc1 [Example 28]

Result ::
[7.00, 8.74]

For every listed record, write down its pIC50.
1. CCn1ncc2c(N3CC4CCC(C3)O4)nc(-c3ccc(NC(=O)NCCF)cc3)nc21 [Example 42]
2. CN(C)c1ccc(NC(=O)Nc2ccc(-c3nc(N4CC5CCC(C4)O5)c4cnn(C)c4n3)cc2)cc1 [Example 233]
3. CN1CCN(c2ccc(NC(=O)Nc3ccc(-c4nc(N5CC6CCC(C5)O6)c5cnn(CCO)c5n4)cc3)cn2)CC1 [Example 205]

Result ::
[9.51, 9.06, 8.77]

For every listed record, write down its pIC50.
1. CCn1ncc2c(N3CC4CCC(C3)O4)nc(-c3ccc(NC(=O)NCCC(=O)NCCN(C)C)cc3)nc21 [Example 279]
2. CC(C)C(=O)N1CCC(n2ncc3c(N4CC5CCC(C4)O5)nc(-c4ccc(NC(=O)Nc5cccnc5)cc4)nc32)CC1 [Example 88]
3. O=C(Nc1ccc(-c2nc(N3CC4CCC(C3)O4)c3cnn(C4CCC5(CC4)OCCO5)c3n2)cc1)OCC(F)(F)F [Example 129]
4. CCn1ncc2c(N3CC4CCC(C3)O4)nc(-c3ccc(NC(=O)Nc4ccc(C)cc4)cc3)nc21 [Example 189]
5. CC(C)(C)OC(=O)N1CCC(n2ncc3c(N4CC5CCC(C4)O5)nc(-c4ccc(NC(=O)Nc5ccccc5)cc4)nc32)CC1 [Example 23]

Result ::
7.63
9.52
7.98
9.05
9.15

====

Assignment: determine reported IC50 for the given molecules.
study-system: PI3K (Homo sapiens)
Construct: PI3 Kinase α IC50; other: PI3 Kinase α; other: PI3 Kinase α isoform, fluorescence polarization
procedure-details: Fluorescence polarization assay for PI3K
Format: biochemical
run-parameters: PI3 Kinase α isoform, fluorescence polarization; read-out: PI3 Kinase α IC50
Be sure to follow the number with its unit.

Sample answers from the record:
molecule | IC50
COCC(COC)n1ncc2c(N3CC4CCC(C3)O4)nc(-c3ccc(NC(=O)Nc4ccc(N5CCNCC5)cc4)cc3)nc21 [Example 335] | 273 nM
CO[C@H]1CC[C@@H](n2ncc3c(N4CC5CCC(C4)O5)nc(-c4ccc(NC(=O)NC5CC5)cc4)nc32)CC1 (relative stereo) [Example 398] | 1150 nM
CCNC(=O)Nc1ccc(-c2nc(N3CC4CCC(C3)O4)c3cnn(C4CCC(OC)CC4)c3n2)cc1 (stereo not drawn) [Example 301] | 2030 nM

For every listed record, write down its IC50.
1. COC(=O)N1CCC(n2ncc3c(N4C5CCC4COC5)nc(-c4ccc(NC(=O)Nc5ccc(CN(C)C)cc5)cc4)nc32)CC1 [Example 366]
2. O=C(Nc1ccc(-c2nc(N3CC4CCC(C3)O4)c3cnn([C@H]4CC[C@H](O)CC4)c3n2)cc1)NC1CC1 (relative stereo) [Example 403]
3. COC(=O)N1CCC(n2ncc3c(N4C5CCC4COC5)nc(-c4ccc(NC(=O)Nc5ccc(N6CCNCC6)cc5)cc4)nc32)CC1 [Example 364]

Result ::
1: 2070 nM; 2: 3630 nM; 3: 1230 nM

Data credit: patent US8129371B2
